- protocol text: Rat brain disposition after oral gavage
- Type: in vivo, male Sprague-Dawley rats
- condition context: male, Sprague-Dawley, brain, oral 10 mg/kg, 0.5 h, mean ± stdev, n=3
- Procedure: Brain disposition was evaluated in male Sprague-Dawley rats (n=3, standard body weight). Briefly, test compound was formulated as a simple suspension (0.5% HPMC in water) then administered by oral gavage (10 mg/kg, 10 mL/kg or 5 mg/kg, 10 mL/kg). […] Diluted extracts were analyzed by liquid-chromatography coupled with tandem mass spectrometry detection (LC-MS/MS) using a bioanalytical method. […]
measured attribute: Kp at 0.5 h
API note: the answer field is a bare number with no unit suffix.

Name the recorded Kp at 0.5 h for CCOc1ncccc1-n1nc2c(c1C)Nc1ncc3c(Cl)nn(c3n1)CCCO2 . 1.2

====

- tested target: LRRK2 WT (Homo sapiens (Human), UniProt Q5S007)
- Sequence (Q5S007 970-2527): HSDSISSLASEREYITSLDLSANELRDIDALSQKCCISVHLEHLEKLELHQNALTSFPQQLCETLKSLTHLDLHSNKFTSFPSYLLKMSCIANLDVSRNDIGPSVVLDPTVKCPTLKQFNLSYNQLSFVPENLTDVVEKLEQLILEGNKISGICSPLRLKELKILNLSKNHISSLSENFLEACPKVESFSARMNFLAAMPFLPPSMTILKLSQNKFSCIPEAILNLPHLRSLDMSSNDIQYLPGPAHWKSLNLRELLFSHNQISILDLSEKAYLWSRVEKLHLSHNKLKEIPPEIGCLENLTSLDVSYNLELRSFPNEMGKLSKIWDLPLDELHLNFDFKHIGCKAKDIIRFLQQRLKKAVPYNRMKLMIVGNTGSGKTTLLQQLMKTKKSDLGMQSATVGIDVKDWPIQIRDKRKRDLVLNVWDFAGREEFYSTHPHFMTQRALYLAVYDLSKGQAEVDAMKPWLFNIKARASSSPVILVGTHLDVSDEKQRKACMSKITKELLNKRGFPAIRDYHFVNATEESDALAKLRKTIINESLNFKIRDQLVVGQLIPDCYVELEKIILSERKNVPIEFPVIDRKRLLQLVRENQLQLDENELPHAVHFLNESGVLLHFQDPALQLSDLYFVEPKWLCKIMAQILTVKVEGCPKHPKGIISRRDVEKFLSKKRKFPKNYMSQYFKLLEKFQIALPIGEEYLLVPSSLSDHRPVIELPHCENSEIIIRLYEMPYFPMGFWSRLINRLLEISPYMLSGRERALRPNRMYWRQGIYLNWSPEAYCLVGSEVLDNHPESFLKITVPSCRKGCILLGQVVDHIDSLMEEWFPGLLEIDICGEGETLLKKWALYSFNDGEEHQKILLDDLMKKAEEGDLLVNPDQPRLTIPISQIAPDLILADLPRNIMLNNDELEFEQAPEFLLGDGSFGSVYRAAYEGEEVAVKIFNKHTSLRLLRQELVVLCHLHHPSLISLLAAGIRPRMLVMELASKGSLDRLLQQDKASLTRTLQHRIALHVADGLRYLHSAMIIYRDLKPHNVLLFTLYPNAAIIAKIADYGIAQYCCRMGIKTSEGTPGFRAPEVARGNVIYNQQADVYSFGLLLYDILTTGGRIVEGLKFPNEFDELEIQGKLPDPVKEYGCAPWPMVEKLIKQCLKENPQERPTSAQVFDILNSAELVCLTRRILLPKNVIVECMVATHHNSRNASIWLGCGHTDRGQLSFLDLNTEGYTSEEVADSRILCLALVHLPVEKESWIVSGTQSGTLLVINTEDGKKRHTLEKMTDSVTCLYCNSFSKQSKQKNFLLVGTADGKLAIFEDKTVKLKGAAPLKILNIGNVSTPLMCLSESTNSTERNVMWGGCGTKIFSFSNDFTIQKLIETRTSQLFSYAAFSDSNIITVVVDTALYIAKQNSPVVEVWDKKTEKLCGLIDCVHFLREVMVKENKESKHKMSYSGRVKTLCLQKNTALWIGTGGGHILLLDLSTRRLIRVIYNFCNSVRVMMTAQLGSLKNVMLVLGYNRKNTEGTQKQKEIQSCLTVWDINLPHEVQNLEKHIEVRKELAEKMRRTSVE
- protocol text: LRRK2 wild-type ADP-Glo kinase assay
- Format: biochemical
- condition context: 0.5 nM kinase; 1.0 mM ATP; IC50=Ki,app+[E]/2; n≥2 tests; read-out: LRRK2 WT ADPGlo IC50
Answer each item with its documented log10(IC50).
Short version: log10 scale, IC50, nM.

I'd like to know its log10(IC50). The compound in question is Cc1c2c(nn1-c1cccnc1OCF)OCCCn1nc(Cl)c3cnc(nc31)N2 -0.36

What value of log10(IC50) has been recorded for this entry: Cc1c2c(nn1-c1cccnc1OC(F)(F)F)OCCCn1nc(Cl)c3cnc(nc31)N2 -0.32

Need log10(IC50), item CCc1c2c(nn1-c1cccnc1C)OCCCn1nc(Cl)c3cnc(nc31)N2 0.40

What value of log10(IC50) has been reported for the following compound? CCc1c2c(nn1-c1cccnc1OC)OCCCn1nc(Cl)c3cnc(nc31)N2 -0.39

Request the reported log10(IC50) associated with CCc1ncccc1-n1nc2c(c1C)Nc1ncc3c(Cl)nn(c3n1)CCCO2 -0.09

Given the compound COc1ncc(C)cc1-n1nc2c(c1C)Nc1ncc3c(Cl)nn(c3n1)CCCO2 , what is its reported log10(IC50)? -0.20

I'd like to know its log10(IC50). The compound in question is COc1ncccc1-n1nc2c(c1C)Nc1ncc3c(Cl)nn(c3n1)CCCO2 -0.34

State the recorded log10(IC50) for this entry: Cc1c2c(nn1-c1cccnc1OC1CC1)OCCCn1nc(Cl)c3cnc(nc31)N2 -0.24

Could you share which log10(IC50) value was measured for COc1nccc(C)c1-n1nc2c(c1C)Nc1ncc3c(Cl)nn(c3n1)CCCO2 ? -0.11

Param item = CCOc1ncccc1-n1nc2c(c1C)Nc1ncc3c(Cl)nn(c3n1)CCCO2 ; retrieve measured log10(IC50). -0.55

Entry Cc1nc(C)c(-n2nc3c(c2C)Nc2ncc4c(Cl)nn(c4n2)CCCO3)cc1F has what log10(IC50)? -0.18

I would be grateful if you could share the reported log10(IC50) for Cc1c2c(nn1-c1cccnc1OC(F)F)OCCCn1nc(Cl)c3cnc(nc31)N2 . -0.49

Look up log10(IC50) for this compound: COc1nnccc1-n1nc2c(c1C)Nc1ncc3c(Cl)nn(c3n1)CCCO2 -0.35

GET /values?readout=log10(IC50)&item= Cc1c2c(nn1-c1cccnc1C(C)(F)F)OCCCn1nc(Cl)c3cnc(nc31)N2 0.18

Given the entry COc1nc(C)ccc1-n1nc2c(c1C)Nc1ncc3c(Cl)nn(c3n1)CCCO2 , report its measured log10(IC50). -0.48

Name the recorded log10(IC50) for Cc1c2c(nn1-c1cccnc1C(F)(F)F)OCCCn1nc(Cl)c3cnc(nc31)N2 . 0.49

====

- tested target: LRRK2 G2019S (Homo sapiens (Human), UniProt Q5S007, G2019S)
- Sequence (Q5S007 970-2527 G2019S): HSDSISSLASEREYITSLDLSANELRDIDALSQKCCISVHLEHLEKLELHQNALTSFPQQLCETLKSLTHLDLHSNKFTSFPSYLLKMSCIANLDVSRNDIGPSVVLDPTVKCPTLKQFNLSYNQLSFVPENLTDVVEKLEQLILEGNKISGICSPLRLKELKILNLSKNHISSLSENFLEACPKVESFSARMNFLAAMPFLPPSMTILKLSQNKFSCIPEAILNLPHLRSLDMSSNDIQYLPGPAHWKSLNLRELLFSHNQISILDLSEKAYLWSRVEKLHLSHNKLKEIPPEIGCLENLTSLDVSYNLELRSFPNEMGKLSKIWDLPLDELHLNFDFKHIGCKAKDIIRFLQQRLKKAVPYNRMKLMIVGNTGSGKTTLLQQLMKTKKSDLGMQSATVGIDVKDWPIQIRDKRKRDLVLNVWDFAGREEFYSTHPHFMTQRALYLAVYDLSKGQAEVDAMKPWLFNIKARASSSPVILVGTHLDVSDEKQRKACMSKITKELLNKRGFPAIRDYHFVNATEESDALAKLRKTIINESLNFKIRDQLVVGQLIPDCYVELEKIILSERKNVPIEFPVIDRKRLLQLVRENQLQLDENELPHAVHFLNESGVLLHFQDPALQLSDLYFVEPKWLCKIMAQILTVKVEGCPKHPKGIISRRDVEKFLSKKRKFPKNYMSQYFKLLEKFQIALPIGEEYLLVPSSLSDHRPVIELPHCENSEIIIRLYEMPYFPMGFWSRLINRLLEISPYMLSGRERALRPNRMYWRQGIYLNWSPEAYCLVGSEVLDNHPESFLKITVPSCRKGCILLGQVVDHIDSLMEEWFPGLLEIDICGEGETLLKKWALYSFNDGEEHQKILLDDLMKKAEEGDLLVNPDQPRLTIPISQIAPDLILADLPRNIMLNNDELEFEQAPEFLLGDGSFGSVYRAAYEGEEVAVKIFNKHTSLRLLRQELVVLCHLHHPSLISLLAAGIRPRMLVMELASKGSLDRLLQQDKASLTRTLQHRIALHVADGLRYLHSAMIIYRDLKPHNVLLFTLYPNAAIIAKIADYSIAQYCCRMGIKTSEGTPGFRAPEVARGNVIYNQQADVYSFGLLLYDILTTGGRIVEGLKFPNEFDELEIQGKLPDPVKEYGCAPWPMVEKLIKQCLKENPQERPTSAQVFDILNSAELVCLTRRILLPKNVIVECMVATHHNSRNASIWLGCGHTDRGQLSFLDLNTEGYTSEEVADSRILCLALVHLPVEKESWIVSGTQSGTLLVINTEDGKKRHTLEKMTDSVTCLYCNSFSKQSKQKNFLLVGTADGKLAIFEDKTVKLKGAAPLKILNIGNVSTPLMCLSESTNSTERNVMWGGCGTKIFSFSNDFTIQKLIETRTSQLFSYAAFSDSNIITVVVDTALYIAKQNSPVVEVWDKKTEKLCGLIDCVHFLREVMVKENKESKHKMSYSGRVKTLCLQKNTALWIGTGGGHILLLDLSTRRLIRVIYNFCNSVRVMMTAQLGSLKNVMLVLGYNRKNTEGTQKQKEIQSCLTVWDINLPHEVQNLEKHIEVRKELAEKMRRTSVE
- protocol text: LRRK2 G2019S LanthaScreen TR-FRET kinase activity assay
- condition context: 250 pM kinase, 1.3 mM ATP, n≥2 tests
measured attribute: log10 of IC50 (log10 of the value in nM)
All values: log10 IC50 [nM].

If you can, please state the reported log10 of IC50 value of Cc1nc(C)c(-n2nc3c(c2C)Nc2ncc4c(Cl)nn(c4n2)CCCO3)cc1F . 0.15

Please look up its log10 of IC50: COc1ncc(C)cc1-n1nc2c(c1C)Nc1ncc3c(Cl)nn(c3n1)CCCO2 -0.89

Fill blank: measured log10 of IC50 of the molecule Cc1c2c(nn1-c1cccnc1OC(F)(F)F)OCCCn1nc(Cl)c3cnc(nc31)N2 is ____. 0.04

What value of measured log10 of IC50 is listed for Cc1c2c(nn1-c1cccnc1OCF)OCCCn1nc(Cl)c3cnc(nc31)N2 ? -0.31

Fill in the blank: the reported log10 of IC50 of COc1nnccc1-n1nc2c(c1C)Nc1ncc3c(Cl)nn(c3n1)CCCO2 is ____. -0.62

Value lookup for log10 of IC50; key = COc1nccc(C)c1-n1nc2c(c1C)Nc1ncc3c(Cl)nn(c3n1)CCCO2 0.36

Which measured log10 of IC50 value corresponds to Cc1c2c(nn1-c1cccnc1OC(F)F)OCCCn1nc(Cl)c3cnc(nc31)N2 ? -0.46

Param item = CCc1c2c(nn1-c1cccnc1C)OCCCn1nc(Cl)c3cnc(nc31)N2 ; retrieve measured log10 of IC50. 1.08

====

- protocol text: Fraction unbound in rat plasma and brain homogenate by equilibrium dialysis
- Format: in vitro ADME, male Sprague-Dawley rat
- condition context: rat plasma; 1 μM; equilibrium dialysis 5 h at 37° C.
Label no if fuplasma (% free) falls below 10 % free; label yes in every other case.

Does the molecule CCc1c2c(nn1-c1cccnc1C)OCCCn1nc(Cl)c3cnc(nc31)N2 have recorded fuplasma (% free) that is 10 % free or more? yes

Decide: is the reported value of fuplasma (% free) for Cc1c2c(nn1-c1cccnc1OC(F)F)OCCCn1nc(Cl)c3cnc(nc31)N2 equal to or greater than 10 % free? no

Answer whether fuplasma (% free) of COc1ncccc1-n1nc2c(c1C)Nc1ncc3c(Cl)nn(c3n1)CCCO2 is greater than or equal to 10 % free. yes

Is fuplasma (% free) at least 10 % free? Consider COc1nc(C)ncc1-n1nc2c(c1C)Nc1ncc3c(Cl)nn(c3n1)CCCO2 yes

Has Cc1ncccc1-n1nc2c(c1C)Nc1ncc3c(Cl)nn(c3n1)CCCO2 a recorded fuplasma (% free) greater than or equal to 10 % free? yes

====

- protocol text: Rat brain disposition after oral gavage
- Type: in vivo, male Sprague-Dawley rats
- condition context: male, Sprague-Dawley, brain, oral 10 mg/kg, 0.5 h, mean ± stdev, n=3, read-out: Total brain concentration
measured attribute: concentration at 0.5 h (ng/g)
# number only, unit ng/g dropped from output

State the recorded concentration at 0.5 h for this entry: CCOc1ncccc1-n1nc2c(c1C)Nc1ncc3c(Cl)nn(c3n1)CCCO2 [Example 2] 31

====

- protocol text: Hepatic microsomal intrinsic clearance assay
- Assay type: in vitro ADME
- condition context: pooled liver microsomes, pH 7.4; liver microsomes 0.5 mg/mL; 1 μM; NADPH; 1 hour at 37° C.; LLOQ 0.36 L/h/kg
Rule: CLint scaled at 1 μM of 20 mL/min/kg or more gives true (1); anything lower gives false (0).

API: above_or_equal(metric=CLint scaled at 1 μM, cutoff=20 mL/min/kg) for item COc1ncc(C)cc1-n1nc2c(c1C)Nc1ncc3c(Cl)nn(c3n1)CCCO2 false (0)

Has [2H]C([2H])([2H])c1c2c(nn1-c1cc(F)cnc1OC)OCCCn1nc(Cl)c3cnc(nc31)N2 (single isomer, unassigned) a recorded CLint scaled at 1 μM greater than or equal to 20 mL/min/kg? true (1)

Please indicate if the recorded CLint scaled at 1 μM for Cc1ncccc1-n1nc2c(c1C)Nc1ncc3c(Cl)nn(c3n1)CCCO2 meets or exceeds 20 mL/min/kg. false (0)

Say whether [2H]C([2H])([2H])c1c2c(nn1-c1cc(C)cnc1C)OCCCn1nc(Cl)c3cnc(nc31)N2 shows CLint scaled at 1 μM of 20 mL/min/kg or more. false (0)

hey, is CLint scaled at 1 μM for this one >= 20 mL/min/kg? Cc1nc(C)c(-n2nc3c(c2C)Nc2ncc4c(Cl)nn(c4n2)CCCO3)cc1F false (0)

Assess whether reported CLint scaled at 1 μM for [2H]C([2H])([2H])c1c2c(nn1-c1ccc(C)nc1C)OCCCn1nc(Cl)c3cnc(nc31)N2 sits at 20 mL/min/kg or higher. false (0)

Has [2H]C([2H])([2H])Oc1ncc(F)cc1-n1nc2c(c1C)Nc1ncc3c(Cl)nn(c3n1)CCCO2 (single isomer, unassigned) a recorded CLint scaled at 1 μM greater than or equal to 20 mL/min/kg? true (1)

Would you say [2H]C([2H])([2H])c1c2c(nn1-c1cccnc1OC)OCCCn1nc(Cl)c3cnc(nc31)N2 shows CLint scaled at 1 μM at minimum 20 mL/min/kg? false (0)

The reported measurements were obtained from patent US11958865B1.
